Assay: Pharmacokinetic experiment (gavage, plasma)
Format: in vivo
Conditions: po, rat, gavage (p.o.) 10 mg/kg
Please enter TRUE where Tmax is greater than or equal to 50 min, and FALSE where it is lower.

Q. Does the reported Tmax for O=C1C=C(OCc2ccc(F)cc2)[C@H](Cc2ccccc2)N1 [Compound 50561, reference compound] fall at or above the 50 min mark?
A. TRUE

Q. Does the reported Tmax for `C[C@@H](OC1=CC(=O)N[C@H]1Cc1ccccc1)c1ccc(F)cc1` fall at or above the 50 min mark?
A. TRUE

Q. Does the reported Tmax for `O=C1C=C(OCc2ccc(F)cc2)[C@H](Cc2ncccc2F)N1` fall at or above the 50 min mark?
A. FALSE

Q. Does the reported Tmax for `O=C1C=C(OCc2ccc(F)cc2)[C@H](Cc2ccccn2)N1` fall at or above the 50 min mark?
A. TRUE

Q. Does the reported Tmax for `[2H]C([2H])(OC1=CC(=O)N[C@H]1Cc1ccccc1)c1ccc(F)cc1` fall at or above the 50 min mark?
A. FALSE

Q. Does the reported Tmax for `C[C@@H](OC1=CC(=O)N[C@H]1Cc1ccccn1)c1ccc(F)cc1` fall at or above the 50 min mark?
A. FALSE

----------
Experiment: Pharmacokinetic experiment (gavage, plasma)
Format: in vivo
Conditions: po, rat, gavage (p.o.) 10 mg/kg
Criterion: Cmax strictly under 1000 ng/mL. Met: Fulfilled. Not met: Not fulfilled.

Q. is_below(Cmax, 1000 ng/mL) for O=C1C=C(OCc2ccc(F)cc2)[C@H](Cc2ccccc2)N1 [Compound 50561, reference compound] ?
A. Fulfilled

Q. is_below(Cmax, 1000 ng/mL) for `C[C@@H](OC1=CC(=O)N[C@H]1Cc1ccccc1)c1ccc(F)cc1` ?
A. Not fulfilled

Q. is_below(Cmax, 1000 ng/mL) for `[2H]C([2H])(OC1=CC(=O)N[C@H]1Cc1ccccc1)c1ccc(F)cc1` ?
A. Not fulfilled

Q. is_below(Cmax, 1000 ng/mL) for `O=C1C=C(OCc2ccc(F)cc2)[C@H](Cc2ncccc2F)N1` ?
A. Not fulfilled

Q. is_below(Cmax, 1000 ng/mL) for `C[C@@H](OC1=CC(=O)N[C@H]1Cc1ccccn1)c1ccc(F)cc1` ?
A. Not fulfilled
